Measured values drawn from ChEMBL document CHEMBL5137066 for this set.

- measurement protocol: Half life in Sprague-Dawley rat at 1 mg/kg, iv
- Assay type: ADME, organism-based
- condition set: in vivo
measured endpoint: half-life (h)

Past entries and their recorded results:
CC(C)c1cnc(N2CC(CS(C)(=O)=O)C2)c2cnc(Nc3ccnc(N4CC[C@@H](O)[C@@](C)(F)C4)n3)cc12	1.6
CC(C)c1ccc(N2C[C@H](CS(C)(=O)=O)[C@H]2C)c2cnc(Nc3ccnc(N4CC[C@@H](O)[C@@](C)(F)C4)n3)cc12	1.3

1: CO[C@@H]1CCN(c2nccc(Nc3cc4c(C(C)C)ccc(N5C[C@H](CS(C)(=O)=O)[C@H]5C)c4cn3)n2)C[C@@H]1F
2: CC(C)c1ccc(N2CC(CS(C)(=O)=O)C2)c2cnc(Nc3ccnc(N4CC[C@@H](O)[C@@](C)(F)C4)n3)cc12
Q: // compare measured half-life, left 1 , right 2 , return larger Mark your answer with the label of the selected entry.
Ans: 2

====

- measurement protocol: Clearance in cynomolgus monkey at 0.5 mg/kg,iv
- Type: ADME, organism-based, Macaca fascicularis
- condition set: in vivo
measured endpoint: clearance (mL/min/kg)

Past entries and their recorded results:
CC(C)c1ccc(N2C[C@H](CS(C)(=O)=O)[C@H]2C)c2cnc(Nc3ccnc(N4CC[C@@](C)(O)[C@@H](F)C4)n3)cc12	8.8
CO[C@@H]1[C@H](O)CN(c2nccc(Nc3cc4c(C(C)C)ccc(N5C[C@H](CS(C)(=O)=O)[C@H]5C)c4cn3)n2)CC1(F)F	9.1

I: CO[C@@H]1CCN(c2nccc(Nc3cc4c(C(C)C)ccc(N5C[C@H](CS(C)(=O)=O)[C@H]5C)c4cn3)n2)C[C@@H]1F
II: CC(C)c1ccc(N2C[C@H](CS(C)(=O)=O)[C@H]2C)c2cnc(Nc3ccnc(N4CC[C@@H](O)[C@@](C)(F)C4)n3)cc12
Q: // compare measured clearance, left I , right II , return larger Mark your answer with the label of the selected entry.
Ans: II
(II: 31.8 mL/min/kg, I: 4.9 mL/min/kg)

====

- tested on: Epidermal growth factor receptor (Homo sapiens, UniProt P00533)
- Sequence (P00533 whole entry): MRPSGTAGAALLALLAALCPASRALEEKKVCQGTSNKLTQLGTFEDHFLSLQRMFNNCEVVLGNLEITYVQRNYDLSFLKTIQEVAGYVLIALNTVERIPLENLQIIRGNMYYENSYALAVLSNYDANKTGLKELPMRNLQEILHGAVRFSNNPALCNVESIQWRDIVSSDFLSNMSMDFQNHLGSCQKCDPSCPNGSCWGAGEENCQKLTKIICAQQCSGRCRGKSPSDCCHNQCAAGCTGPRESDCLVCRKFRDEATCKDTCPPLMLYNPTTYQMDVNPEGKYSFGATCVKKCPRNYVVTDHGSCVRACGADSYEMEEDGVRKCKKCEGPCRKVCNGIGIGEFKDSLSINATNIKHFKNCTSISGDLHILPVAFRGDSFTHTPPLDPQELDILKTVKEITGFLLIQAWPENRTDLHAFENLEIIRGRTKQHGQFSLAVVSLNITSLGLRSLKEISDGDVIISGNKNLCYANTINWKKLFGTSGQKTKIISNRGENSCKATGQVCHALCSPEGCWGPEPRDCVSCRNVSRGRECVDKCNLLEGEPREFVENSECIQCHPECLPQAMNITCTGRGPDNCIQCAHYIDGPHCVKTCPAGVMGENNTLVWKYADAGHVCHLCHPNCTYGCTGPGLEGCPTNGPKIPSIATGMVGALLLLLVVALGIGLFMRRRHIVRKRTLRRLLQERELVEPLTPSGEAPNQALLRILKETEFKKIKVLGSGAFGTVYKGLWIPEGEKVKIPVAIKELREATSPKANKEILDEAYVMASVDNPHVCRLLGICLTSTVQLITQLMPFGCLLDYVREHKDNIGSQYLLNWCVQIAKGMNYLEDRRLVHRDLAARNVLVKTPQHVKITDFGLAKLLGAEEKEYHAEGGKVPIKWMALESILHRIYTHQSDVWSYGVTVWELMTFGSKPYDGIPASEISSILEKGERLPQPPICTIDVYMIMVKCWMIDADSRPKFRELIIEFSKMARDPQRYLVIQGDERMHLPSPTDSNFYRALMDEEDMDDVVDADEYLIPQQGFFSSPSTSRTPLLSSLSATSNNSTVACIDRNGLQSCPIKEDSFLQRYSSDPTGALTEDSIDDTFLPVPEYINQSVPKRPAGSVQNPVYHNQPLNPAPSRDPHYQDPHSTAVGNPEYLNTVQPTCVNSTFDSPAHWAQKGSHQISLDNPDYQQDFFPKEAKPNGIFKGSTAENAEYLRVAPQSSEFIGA
- measurement protocol: Inhibition of wild type EGFR in human A-431 cells preincubated for 4 to 5 hrs followed by EGF stimulation for 10 mins by AlphaLISA method
- Type: cell-based
measured endpoint: pIC50
Note: pIC50 values are expressed as the negative base-10 logarithm of concentration in M.

Past entries and their recorded results:
CC(C)c1cnc(N2CC[C@H]2C)c2cnc(Nc3ccnc(N4CC[C@@H](O)[C@@](C)(F)C4)n3)cc12	5.00
CC(C)c1cnc(N2C[C@H](CS(C)(=O)=O)[C@H]2C)c2cnc(Nc3ccnc(N4CC[C@@H](O)[C@@](C)(F)C4)n3)cc12	6.11

Q: Specify measured pIC50 for "CC[C@]1(F)CN(c2nccc(Nc3cc4c(C(C)C)ccc(N5C[C@H](CS(C)(=O)=O)[C@H]5C)c4cn3)n2)CC[C@H]1O" .
Ans: 6.15

====

- measurement protocol: Intrinsic clearance in human hepatocytes assessed per million cells
- Format: ADME, cell-based, Hepatocyte
measured endpoint: CLH (µL/min)

a: CC(C)c1ccc(N2C[C@H](CS(C)(=O)=O)[C@H]2C)c2cnc(Nc3ccnc(N4CC[C@@H](O)[C@@](C)(F)C4)n3)cc12
b: CO[C@@H]1CCN(c2nccc(Nc3cc4c(C(C)C)ccc(N5C[C@H](CS(C)(=O)=O)[C@H]5C)c4cn3)n2)C[C@@H]1F [TIGOZERTINIB]
Q: Given the listed items, does a or b have the lesser reported CLH? Mark your answer with the label of the selected entry.
Ans: b

====

- measurement protocol: Intrinsic clearance in cynomolgus monkey liver microsomes in presence of NADPH
- Assay type: ADME, Macaca fascicularis, Microsome
measured endpoint: CLH (µL/min/mg)

Past entries and their recorded results:
CO[C@@H]1[C@H](O)CN(c2nccc(Nc3cc4c(C(C)C)ccc(N5C[C@H](CS(C)(=O)=O)[C@H]5C)c4cn3)n2)CC1(F)F	25
CC[C@]1(F)CN(c2nccc(Nc3cc4c(C(C)C)ccc(N5C[C@H](CS(C)(=O)=O)[C@H]5C)c4cn3)n2)CC[C@H]1O	192
CC(C)c1ccc(N2C[C@H](CS(C)(=O)=O)[C@H]2C)c2cnc(Nc3ccnc(N4CC[C@@](C)(O)[C@@H](F)C4)n3)cc12	23

1: CO[C@@H]1CCN(c2nccc(Nc3cc4c(C(C)C)ccc(N5C[C@H](CS(C)(=O)=O)[C@H]5C)c4cn3)n2)C[C@@H]1F
2: CC(C)c1ccc(N2C[C@H](CS(C)(=O)=O)[C@H]2C)c2cnc(Nc3ccnc(N4CC[C@@H](O)[C@@](C)(F)C4)n3)cc12
Q: Given the listed items, does 1 or 2 have the lesser reported CLH? Mark your answer with the label of the selected entry.
Ans: 2

====

- measurement protocol: Half life in beagle dog at 0.5 mg/kg, iv
- Type: ADME, organism-based, Canis lupus familiaris
- condition set: in vivo
measured endpoint: half-life (h)
Please state the figure in h; there is no need to write the unit.

Q: Specify measured half-life for CO[C@@H]1CCN(c2nccc(Nc3cc4c(C(C)C)ccc(N5C[C@H](CS(C)(=O)=O)[C@H]5C)c4cn3)n2)C[C@@H]1F [TIGOZERTINIB] .
Ans: 4.9

====

- measurement protocol: Half life in cynomolgus monkey at 0.5 mg/kg, iv
- Format: ADME, organism-based, Macaca fascicularis
- condition set: in vivo
measured endpoint: half-life (min)

CO[C@@H]1CCN(c2nccc(Nc3cc4c(C(C)C)ccc(N5C[C@H](CS(C)(=O)=O)[C@H]5C)c4cn3)n2)C[C@@H]1F	210
CC(C)c1ccc(N2C[C@H](CS(C)(=O)=O)[C@H]2C)c2cnc(Nc3ccnc(N4CC[C@@H](O)[C@@](C)(F)C4)n3)cc12	174
CO[C@@H]1[C@H](O)CN(c2nccc(Nc3cc4c(C(C)C)ccc(N5C[C@H](CS(C)(=O)=O)[C@H]5C)c4cn3)n2)CC1(F)F	270
CC(C)c1ccc(N2C[C@H](CS(C)(=O)=O)[C@H]2C)c2cnc(Nc3ccnc(N4CC[C@@](C)(O)[C@@H](F)C4)n3)cc12	288

====

- tested on: Epidermal growth factor receptor (Homo sapiens, UniProt P00533, L858R/T790M)
- Sequence (P00533 25-1210 T790M/L858R limits assumed): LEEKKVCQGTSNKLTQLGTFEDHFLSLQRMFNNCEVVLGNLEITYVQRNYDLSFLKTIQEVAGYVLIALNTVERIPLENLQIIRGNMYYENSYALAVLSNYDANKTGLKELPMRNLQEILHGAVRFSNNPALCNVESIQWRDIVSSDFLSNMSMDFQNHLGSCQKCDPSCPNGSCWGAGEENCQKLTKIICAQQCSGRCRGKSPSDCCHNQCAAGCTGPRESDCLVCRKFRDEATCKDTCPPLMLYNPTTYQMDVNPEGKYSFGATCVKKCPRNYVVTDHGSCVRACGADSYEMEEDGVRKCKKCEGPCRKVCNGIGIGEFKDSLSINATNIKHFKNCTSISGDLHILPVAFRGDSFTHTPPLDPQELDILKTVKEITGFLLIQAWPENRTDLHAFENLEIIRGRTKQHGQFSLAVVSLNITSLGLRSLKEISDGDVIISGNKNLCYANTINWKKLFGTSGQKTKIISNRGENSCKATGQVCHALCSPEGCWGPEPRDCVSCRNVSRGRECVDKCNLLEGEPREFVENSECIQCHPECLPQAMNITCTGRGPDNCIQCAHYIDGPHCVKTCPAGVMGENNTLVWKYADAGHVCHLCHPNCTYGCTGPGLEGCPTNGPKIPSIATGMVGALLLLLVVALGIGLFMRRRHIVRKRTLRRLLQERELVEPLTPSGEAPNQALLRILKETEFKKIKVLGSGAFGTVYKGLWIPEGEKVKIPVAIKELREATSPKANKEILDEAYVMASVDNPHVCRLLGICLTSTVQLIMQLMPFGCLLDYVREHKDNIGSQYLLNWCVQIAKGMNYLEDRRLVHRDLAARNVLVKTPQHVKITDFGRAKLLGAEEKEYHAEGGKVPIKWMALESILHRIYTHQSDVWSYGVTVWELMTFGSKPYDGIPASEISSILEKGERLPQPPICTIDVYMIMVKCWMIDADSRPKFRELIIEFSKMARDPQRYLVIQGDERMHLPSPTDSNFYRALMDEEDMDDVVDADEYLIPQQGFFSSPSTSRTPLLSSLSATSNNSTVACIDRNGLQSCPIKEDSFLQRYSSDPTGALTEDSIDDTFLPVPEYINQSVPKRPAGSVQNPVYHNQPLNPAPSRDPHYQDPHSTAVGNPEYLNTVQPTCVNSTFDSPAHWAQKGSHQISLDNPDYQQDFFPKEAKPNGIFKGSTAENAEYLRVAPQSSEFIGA
- measurement protocol: Inhibition of N-terminal GST tagged recombinant human EGFR L858R/T790M (669 to end residues) double mutant expressed in baculovirus infected Sf9 insect cells expression system using 5-FAM-EEPLYINSFPAKKK-CONH peptide as substrate preincubated for 10 mins followed by peptide substrate addition in presence of ATP
measured endpoint: IC50 (nM)
Please state the figure in nM; there is no need to write the unit.

Past entries and their recorded results:
CNC(=O)C1CN(c2ncc(C(C)C)c3cc(Nc4ccnc(N5CC[C@@H](O)[C@@](C)(F)C5)n4)ncc23)C1	1
CO[C@@H]1[C@H](O)CN(c2nccc(Nc3cc4c(C(C)C)ccc(N5C[C@H](CS(C)(=O)=O)[C@H]5C)c4cn3)n2)CC1(F)F	0.7

In the following, a different compound is considered.
Q: Specify measured IC50 for "CC(C)c1ncc(N2C[C@H](O)[C@H]2C)c2cnc(Nc3ccnc(N4CC[C@@H](O)[C@@](C)(F)C4)n3)cc12" .
Ans: 1.8

====

Reported IC50 by item:
- tested on: Epidermal growth factor receptor (Homo sapiens, UniProt P00533)
- measurement protocol: Inhibition of wild type EGFR in human A-431 cells preincubated for 4 to 5 hrs followed by EGF stimulation for 10 mins by AlphaLISA method
- Type: cell-based
Please state the figure in µM; there is no need to write the unit.

CC(C)c1cnc(N2CCC2)c2cnc(Nc3ccnc(N4CC[C@@H](O)[C@@](C)(F)C4)n3)cc12	8.67
CC(C)c1ccc(N2C[C@H](CS(C)(=O)=O)[C@H]2C)c2cnc(Nc3ccnc(N4CC[C@@](C)(O)[C@@H](F)C4)n3)cc12	1.21

In the following, a different compound is considered.
Q: Specify measured IC50 for "CO[C@@H]1[C@H](O)CN(c2nccc(Nc3cc4c(C(C)C)ccc(N5C[C@H](CS(C)(=O)=O)[C@H]5C)c4cn3)n2)CC1(F)F" .
Ans: 0.191

====

- measurement protocol: Intrinsic clearance in human hepatocytes assessed per million cells
- Type: ADME, cell-based, Hepatocyte
measured endpoint: CLH (µL/min)
Please state the figure in µL/min; there is no need to write the unit.

Past entries and their recorded results:
CC(C)c1ccc(N2C[C@H](CS(C)(=O)=O)[C@H]2C)c2cnc(Nc3ccnc(N4CC[C@@](C)(O)[C@@H](F)C4)n3)cc12	3.2
CC[C@]1(F)CN(c2nccc(Nc3cc4c(C(C)C)ccc(N5C[C@H](CS(C)(=O)=O)[C@H]5C)c4cn3)n2)CC[C@H]1O	48

In the following, a different compound is considered.
Q: Specify measured CLH for "CO[C@@H]1[C@H](O)CN(c2nccc(Nc3cc4c(C(C)C)ccc(N5C[C@H](CS(C)(=O)=O)[C@H]5C)c4cn3)n2)CC1(F)F" .
Ans: 16
